Measured values drawn from patent US20240254089A1 for this set.

Assayed target: human MRGPR X4 (Homo sapiens, UniProt Q96LA9)
Construct: expressed in transfected cells
Sequence (Q96LA9 whole entry): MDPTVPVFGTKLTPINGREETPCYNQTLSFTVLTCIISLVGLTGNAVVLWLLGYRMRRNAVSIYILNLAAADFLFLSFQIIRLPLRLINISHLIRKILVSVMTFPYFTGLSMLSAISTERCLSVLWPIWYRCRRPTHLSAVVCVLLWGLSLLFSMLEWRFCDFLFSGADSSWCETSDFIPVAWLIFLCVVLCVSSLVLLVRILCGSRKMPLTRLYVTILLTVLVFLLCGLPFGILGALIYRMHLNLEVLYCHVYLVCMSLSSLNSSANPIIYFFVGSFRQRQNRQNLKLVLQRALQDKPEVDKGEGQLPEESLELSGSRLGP
Test details: MRGPR X4 antagonist activity, IP-One Gq HTRF assay in stably transfected HEK cells
Format: cell-based
Measurement setup: versus 20 μM deoxycholic acid agonist; HEK cells expressing human MRGPR X4; read-out: MRGPRX4 Antagonist Activity
pIC50: −log10 of the molar value.
In this section, each of the compounds is paired with its reported pIC50.

Compound	Test value
O=C(O)c1ccc(S(=O)(=O)NC(=O)c2nn(Cc3ccc(OC(F)F)cc3)c3ccccc23)cc1 [Compound 311]	5.60 to 6.00
Cc1cccc(S(=O)(=O)NC(=O)c2nn(Cc3ccc(Cl)cc3)c3ccccc23)n1 [Compound 305]	< 5.60
Cc1ccc(NC(=O)CS(=O)(=O)c2cn(Cc3ccc(Cl)cc3)c3ccccc23)cc1 [Compound 247]	5.60 to 6.00

Please examine the following record next.
I would be grateful if you could share the reported pIC50 for COc1cccc(S(=O)(=O)NC(=O)c2nn(Cc3ccc(OC(F)F)cc3)c3ccccc23)c1 [Compound 285] .
5.60 to 6.00
